# maps each entry to its pIC50
Test system: Kidney
test method notes: Antioxidant activity in Sprague-Dawley rat kidney assessed as lipid peroxidation by thiobarbituric acid assay
Format: functional, tissue-based
Would you please state pIC50, meaning minus log10 of the concentration in mol/L, as a bare number?

Study these solved cases before continuing.
COc1cc([C@@H]2c3cc4c(cc3C[C@H]3COC(=O)[C@@H]32)OCO4)cc(OC)c1OC(=O)[C@@H](NC(=O)OC1CC(C)(C)N([O])C(C)(C)C1)C(C)C | 4.69
COc1cc([C@@H]2c3cc4c(cc3C[C@H]3COC(=O)[C@@H]32)OCO4)cc(OC)c1OC(=O)[C@H](Cc1ccc(O)cc1)NC(=O)OC1CC(C)(C)N([O])C(C)(C)C1 | 4.79

Lab note: COc1cc([C@@H]2c3cc4c(cc3C[C@H]3COC(=O)[C@@H]32)OCO4)cc(OC)c1OC(=O)[C@H](CC(C)C)NC(=O)OC1CC(C)(C)N([O])C(C)(C)C1 gave pIC50 of 4.92

Numbers sourced from ChEMBL document CHEMBL1157024.
